- experiment.summary: chemical genetic growth profiling, strain panel (AID 1159580);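 note: tested at 20 µM; growth read once vehicle control cultures reached saturation at 30 °C; 1 = growth at the plate median or of vehicle wells; lower values mean less growth of the strain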
- cond: S. cerevisiae deletion strains, growth OD, locus YPL241C, strain CIN2, active compounds read low
Out of some 5,500 compounds screened, about 2,000 (36%) were called active. Another 18% or so got no clear call; they are omitted. This is one part of the list.
Reported normalized growth values for a set of compounds

Study these solved cases before continuing.
O=C(Cn1ccnc1[N+](=O)[O-])NCCO | 1.01 (inactive)
CC[C@H](C)C(=O)O[C@H]1C[C@@H](C)C=C2C=C[C@H](C)[C@H](CC[C@@H]3C[C@@H](O)CC(=O)O3)[C@H]21 | 0.979 (inactive)
CCC(C)(C)C(=O)O[C@H]1C[C@@H](C)C=C2C=C[C@H](C)[C@H](CC[C@@H]3C[C@@H](O)CC(=O)O3)[C@H]21 | 1 (inactive)
Clc1ccc(C2=CSC3=NCCCN23)cc1 | 1 (inactive)

**Q:** # normalized growth lookup, item CCCN1CCC[C@H](c2cccc(O)c2)C1
**A:** 1.01 (inactive)
